Test system: NCI-H727
Experiment: relative viability (nuclei count vs DMSO), 5 days (fraction); higher = more cells survive
Settings: first compound 0.01 µM
// relative viability lookup, one value per entry

[
  {
    "compound": "Cc1cn(-c2cc(NC(=O)c3ccc(C)c(Nc4nccc(-c5cccnc5)n4)c3)cc(C(F)(F)F)c2)cn1 [Nilotinib] + NC(=O)Nc1cc(-c2cccc(F)c2)sc1C(=O)N[C@H]1CCCNC1 [AZD7762] (partner 0.2 µM)",
    "target-or-test-system": "NCI-H727",
    "relative viability": 0.456
  },
  {
    "compound": "Cc1cn(-c2cc(NC(=O)c3ccc(C)c(Nc4nccc(-c5cccnc5)n4)c3)cc(C(F)(F)F)c2)cn1 [Nilotinib] + CS(=O)(=O)CCNCc1ccc(-c2ccc3ncnc(Nc4ccc(OCc5cccc(F)c5)c(Cl)c4)c3c2)o1 [Lapatinib] (partner 2 µM)",
    "target-or-test-system": "NCI-H727",
    "relative viability": 0.985
  },
  {
    "compound": "Cc1cn(-c2cc(NC(=O)c3ccc(C)c(Nc4nccc(-c5cccnc5)n4)c3)cc(C(F)(F)F)c2)cn1 [Nilotinib] + C[C@@H](Oc1cc(-c2cnn(C3CCNCC3)c2)cnc1N)c1c(Cl)ccc(F)c1Cl [Crizotinib] (partner 1 µM)",
    "target-or-test-system": "NCI-H727",
    "relative viability": 1.05
  },
  {
    "compound": "Cc1cn(-c2cc(NC(=O)c3ccc(C)c(Nc4nccc(-c5cccnc5)n4)c3)cc(C(F)(F)F)c2)cn1 [Nilotinib] + Cc1cc(Nc2cc(N3CCN(C)CC3)nc(Sc3ccc(NC(=O)C4CC4)cc3)n2)n[nH]1 [Tozasertib] (partner 0.1 µM)",
    "target-or-test-system": "NCI-H727",
    "relative viability": 0.503
  },
  {
    "compound": "Cc1cn(-c2cc(NC(=O)c3ccc(C)c(Nc4nccc(-c5cccnc5)n4)c3)cc(C(F)(F)F)c2)cn1 [Nilotinib] + COc1cccc2cc(-c3nc([C@H]4CC[C@H](C(=O)O)CC4)n4ncnc(N)c34)[nH]c12 [OSI-027] (partner 0.5 µM)",
    "target-or-test-system": "NCI-H727",
    "relative viability": 0.697
  }
]

* * *

Test system: ABC-1
Assay: relative viability (nuclei count vs DMSO), 5 days (fraction); higher = more cells survive
Settings: first compound 2 µM
Decision: relative viability beneath 0.7 gives label 1; relative viability meeting or exceeding 0.7 gives label 0.

[
  {
    "molecule": "Cc1csc(=NC2CCCCC2)n1/N=C/c1ccc(O)c(O)c1O [MIM1] + N=C(N)NC(=N)NCCc1ccccc1 [Phenformin] (partner 250 µM)",
    "target-or-test-system": "ABC-1",
    "class": "label 1"
  },
  {
    "molecule": "Cc1csc(=NC2CCCCC2)n1/N=C/c1ccc(O)c(O)c1O [MIM1] + O=C(CCCCCCC(=O)Nc1ccccc1)NO [Vorinostat] (partner 1 µM)",
    "target-or-test-system": "ABC-1",
    "class": "label 0"
  },
  {
    "molecule": "Cc1csc(=NC2CCCCC2)n1/N=C/c1ccc(O)c(O)c1O [MIM1] + CC(=O)c1c(C)c2cnc(Nc3ccc(N4CCNCC4)cn3)nc2n(C2CCCC2)c1=O [Palbociclib] (partner 0.5 µM)",
    "target-or-test-system": "ABC-1",
    "class": "label 1"
  },
  {
    "molecule": "CN1CCN(CCOc2cc(OC3CCOCC3)c3c(Nc4c(Cl)ccc5c4OCO5)ncnc3c2)CC1 [Saracatinib] + N=C(N)NC(=N)NCCc1ccccc1 [Phenformin] (partner 250 µM)",
    "target-or-test-system": "ABC-1",
    "class": "label 1"
  },
  {
    "molecule": "Cc1csc(=NC2CCCCC2)n1/N=C/c1ccc(O)c(O)c1O [MIM1] + CS(=O)(=O)N1CCN(Cc2cc3nc(-c4cccc5[nH]ncc45)nc(N4CCOCC4)c3s2)CC1 [Pictilisib] (partner 1 µM)",
    "target-or-test-system": "ABC-1",
    "class": "label 0"
  },
  {
    "molecule": "Cc1csc(=NC2CCCCC2)n1/N=C/c1ccc(O)c(O)c1O [MIM1] + CC(C)C[C@H](NC(=O)[C@H](Cc1ccccc1)NC(=O)c1cnccn1)B(O)O [Bortezomib] (partner 0.002 µM)",
    "target-or-test-system": "ABC-1",
    "class": "label 1"
  },
  {
    "molecule": "Cc1csc(=NC2CCCCC2)n1/N=C/c1ccc(O)c(O)c1O [MIM1] + Nc1ncn([C@H]2C[C@H](O)[C@@H](CO)O2)c(=O)n1 [Decitabine] (partner 2 µM)",
    "target-or-test-system": "ABC-1",
    "class": "label 0"
  },
  {
    "molecule": "CN1CCN(CCOc2cc(OC3CCOCC3)c3c(Nc4c(Cl)ccc5c4OCO5)ncnc3c2)CC1 [Saracatinib] + COc1cc2c(Oc3ccc(NC(=O)C4(C(=O)Nc5ccc(F)cc5)CC4)cc3F)ccnc2cc1OCCCN1CCOCC1 [Foretinib] (partner 0.25 µM)",
    "target-or-test-system": "ABC-1",
    "class": "label 0"
  },
  {
    "molecule": "CN1CCN(CCOc2cc(OC3CCOCC3)c3c(Nc4c(Cl)ccc5c4OCO5)ncnc3c2)CC1 [Saracatinib] + CS(=O)(=O)N1CCN(Cc2cc3nc(-c4cccc5[nH]ncc45)nc(N4CCOCC4)c3s2)CC1 [Pictilisib] (partner 1 µM)",
    "target-or-test-system": "ABC-1",
    "class": "label 0"
  },
  {
    "molecule": "Cc1csc(=NC2CCCCC2)n1/N=C/c1ccc(O)c(O)c1O [MIM1] + COc1cccc2cc(-c3nc([C@H]4CC[C@H](C(=O)O)CC4)n4ncnc(N)c34)[nH]c12 [OSI-027] (partner 0.5 µM)",
    "target-or-test-system": "ABC-1",
    "class": "label 1"
  },
  {
    "molecule": "Cc1csc(=NC2CCCCC2)n1/N=C/c1ccc(O)c(O)c1O [MIM1] + C[C@@H](Oc1cc(-c2cnn(C3CCNCC3)c2)cnc1N)c1c(Cl)ccc(F)c1Cl [Crizotinib] (partner 1 µM)",
    "target-or-test-system": "ABC-1",
    "class": "label 0"
  },
  {
    "molecule": "CN1CCN(CCOc2cc(OC3CCOCC3)c3c(Nc4c(Cl)ccc5c4OCO5)ncnc3c2)CC1 [Saracatinib] + Cc1nc(NC(=O)N2CCC[C@H]2C(N)=O)sc1-c1ccnc(C(C)(C)C(F)(F)F)c1 [Alpelisib] (partner 2 µM)",
    "target-or-test-system": "ABC-1",
    "class": "label 0"
  }
]

* * *

Tested on: LC-2-ad
Assay: relative viability (nuclei count vs DMSO), 5 days (fraction); higher = more cells survive
Conditions: first compound 20 µM
Decision: relative viability beneath 0.2 gives Criterion met; relative viability meeting or exceeding 0.2 gives Criterion not met.

[
  {
    "compound": "Cc1csc(=NC2CCCCC2)n1/N=C/c1ccc(O)c(O)c1O [MIM1] + CS(=O)(=O)N1CCN(Cc2cc3nc(-c4cccc5[nH]ncc45)nc(N4CCOCC4)c3s2)CC1 [Pictilisib] (partner 1 µM)",
    "class": "Criterion met"
  },
  {
    "compound": "Cc1csc(=NC2CCCCC2)n1/N=C/c1ccc(O)c(O)c1O [MIM1] + Cc1nc(Nc2ncc(C(=O)Nc3c(C)cccc3Cl)s2)cc(N2CCN(CCO)CC2)n1 [Dasatinib] (partner 0.075 µM)",
    "class": "Criterion met"
  },
  {
    "compound": "Cc1csc(=NC2CCCCC2)n1/N=C/c1ccc(O)c(O)c1O [MIM1] + Nc1nc2[nH]cc(CCc3ccc(C(=O)N[C@@H](CCC(=O)O)C(=O)O)cc3)c2c(=O)[nH]1 [Pemetrexed] (partner 0.2 µM)",
    "class": "Criterion not met"
  },
  {
    "compound": "Cc1csc(=NC2CCCCC2)n1/N=C/c1ccc(O)c(O)c1O [MIM1] + Cc1cc(Nc2cc(N3CCN(C)CC3)nc(Sc3ccc(NC(=O)C4CC4)cc3)n2)n[nH]1 [Tozasertib] (partner 0.1 µM)",
    "class": "Criterion not met"
  },
  {
    "compound": "Cc1csc(=NC2CCCCC2)n1/N=C/c1ccc(O)c(O)c1O [MIM1] + O=C(c1cc(Cc2n[nH]c(=O)c3ccccc23)ccc1F)N1CCN(C(=O)C2CC2)CC1 [Olaparib] (partner 8 µM)",
    "class": "Criterion not met"
  },
  {
    "compound": "Cc1csc(=NC2CCCCC2)n1/N=C/c1ccc(O)c(O)c1O [MIM1] + CC(=O)c1c(C)c2cnc(Nc3ccc(N4CCNCC4)cn3)nc2n(C2CCCC2)c1=O [Palbociclib] (partner 0.5 µM)",
    "class": "Criterion met"
  },
  {
    "compound": "Cc1csc(=NC2CCCCC2)n1/N=C/c1ccc(O)c(O)c1O [MIM1] + COc1cccc2cc(-c3nc([C@H]4CC[C@H](C(=O)O)CC4)n4ncnc(N)c34)[nH]c12 [OSI-027] (partner 0.5 µM)",
    "class": "Criterion not met"
  }
]
